Target: T1, human MSLN-R3-3 polypeptide (human)
T1 construct: also called human MSLN-R3-3 protein; hMSLN-R3-3
Experiment: ELISA, coated MSLN-R3-3;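 further: chimeric antibodies in serial dilution bound to plate-coated antigen for 2 h at 37 °C, with a negative control antibody alongside, and TMB colour development stopped with HCl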
Property: OD450 at 100 nM (OD450)
Kindly provide the numeric value in OD450 only, without the unit symbol.

I am curious: what OD450 at 100 nM value has been reported for S009-F1.57.1 (antibody, human IgG1, kappa, V domains shown, Human-murine chimeric antibody, human IgG1/kappa constant regions) VH: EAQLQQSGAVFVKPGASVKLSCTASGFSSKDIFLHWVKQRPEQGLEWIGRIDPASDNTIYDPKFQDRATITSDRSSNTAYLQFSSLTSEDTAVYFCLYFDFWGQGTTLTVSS VL: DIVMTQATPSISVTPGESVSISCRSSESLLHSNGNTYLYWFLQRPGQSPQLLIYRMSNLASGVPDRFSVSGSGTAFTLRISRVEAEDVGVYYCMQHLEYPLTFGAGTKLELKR ?
0.11

Which value of OD450 at 100 nM has been reported for S009-F1.25.10 (antibody, human IgG1, kappa, V domains shown, Human-murine chimeric antibody, human IgG1/kappa constant regions) VH: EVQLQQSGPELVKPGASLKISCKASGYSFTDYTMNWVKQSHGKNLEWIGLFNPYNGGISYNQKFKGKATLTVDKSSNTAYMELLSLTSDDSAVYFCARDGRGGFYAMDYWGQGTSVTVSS VL: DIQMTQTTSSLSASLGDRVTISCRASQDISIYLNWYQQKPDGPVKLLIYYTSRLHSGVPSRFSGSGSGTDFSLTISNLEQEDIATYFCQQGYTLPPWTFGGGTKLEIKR in the records?
2.78
